assay_info: soluble on expression in E. coli; label from the status in PepcDB or PDB records

{"record_sequence": "MSLASQSEAEVLIGVAGPMSGKLAWTGTQLRRGAEMAVANINAAGGVLGQQVRLIVADDFCDPRQALAAAEKLVADGAVFVIGHYCSGASIPASKIYAAAGVLQISPSSTNPMLTEQGHANVFRVCSRDDAQGHKAGNYLADHWGDSKIAILHDNTTYGKGLADETKKQLNMRGVTEAVYQSYTPGKDDYSVEVAALQTAHIAVLYLGGYHTEAALMVRAARDRAYPVQLISGDDTATEAFGLIAGPAAEGTLFTFVADPRRNAEAAEVVERFRAENFEPDSWTLHSYGAAEIWAQAVTKANSLDLQAVIAALREDQFDTVLGRIDFDKKGDLTVQSWVWYVWKSGEYVPVEEGHHHHHH", "soluble on expression in E. coli": "soluble"}
{"record_sequence": "MSLRIFLCGCVHGSWEVVVNEVNKLVAKGTKIDLIIVAGDTESFRSKSDLESYNYQRQNHDLGTFHKLVSGELKLPCKMLMIGGNNEVGDMIFQLPFGGWVTPDIFFAGINSQIYFGDLLITCQSGIMNGQDYHKCISEKFPVRGCDTHLILHIREVSIFQLYGLKNVPLFVSHEWPSGIPKQYRNIPRMQFYAKSDDKNDFGCPGFVKLLNKHRPKKWYAAHLHVRFDCTLKNGTKFTGVPKVIDKRYKWYELEEYNCNPAGGFKFSGEWINIVKNTERFVKNPKLLQNLDWDEEWRKIYETMNTEDFPEKVDVMEYNDDYQIQTKKFCDSYQIYNPYKEGHHHHHH", "soluble on expression in E. coli": "soluble"}
{"record_sequence": "MKKLLFAIDDTEACERAAQYILDMFGKDADCTLTLIHVKPEFMLYGEAVLAAYDEIEMKEEEKAKLLTQKFSTFFTEKGINPFVVIKEGEPVEMVLEEAKDYNLLIIGSSENSFLNKIFASHQDDFIQKAPIPVLIVK", "soluble on expression in E. coli": "soluble"}
{"record_sequence": "MGSDKIHHHHHHMSPRPKQLSLELGSPPPSTFDNFVVASNREAVQRLHDLPSAVAQERAIDRLFYLWGENGCGRTHLLHAVCEATPQTGINCRYLSPHHPLSDFLFDPSCQLYTVDDVELLDEARQIAVFSLYNEVRAHVRTALVVAGGMAPRAMPVREDLRTRLGWGLVYQVQPLSDEDKMSAVLQAARERGLQLSPEITHWLVTRHYRDMPSLMALLDALDTYSLERKRPVTLPLLREMFAEFRE", "soluble on expression in E. coli": "not soluble"}
{"record_sequence": "MGSDKIHHHHHHMSGIRLVRAKITYLHDSCTFNFINENMSVKLLWSVPYRGDRMITYESVYPIQSKDVAKLIITKVRNNPKTLSVFDRSINGKTLFIGYLEYSDNSPFYLSNRVGTIFYDEYTGTGGDVISMITTADNFDLIREDLSVYGKIVHRQVQEIEAESINGPPRLTEMQEKVLRNAFEMGFFNYPKDVHLKDIAQKIGVSAVSVDQYLREAQRKLIRAYLNG", "soluble on expression in E. coli": "not soluble"}
{"record_sequence": "TLQIQFKKYELPPLPYKIDALEPYISKDIIDVHYNGHHKGYVNGANSLLERLEKVVKGDLQTGQYDIQGIIRGLTFNINGHKLHALYWENMAPSGKGGGKPGGALADLINKQYGSFDRFKQVFTETANSLPGTGWAVLYYDTESGNLQIMTFENHFQNHIAEIPIILILDEFEHAYYLQYKNKRADYVNAWWNVVNWDAAEKKLQKYLTK", "soluble on expression in E. coli": "soluble"}
{"record_sequence": "SSWKPRSQQPDAPLGTGANRDLELPWLEQQGPASHHRRQLGPQGPPHLVADPSKKQGPWLEEEEEAYGWMDFGRRSAEDEN", "soluble on expression in E. coli": "soluble"}
{"record_sequence": "MGSDKIHHHHHHMAYVPNPVNIGVVYTENAAVLVDSGLDESVPRKISRLLQKPPLYLINTHSHADHCGGNAFLKKRFSTRVFAPKMEKEIIENTVFEPFYLYGAYPPNELRNKFLMAEPSAVDEVIEEGTITIESVDLEIVPLSGHSTNQIGVAVDGVLFCADAVFSEETLRKHRIFVIYNVEKFLETLDFLEKTSYSYYVPSHGEVTRDIGELVEKNRKAVENIINAVLEITVNPLSTDELMKQLFDRFEITLENLTQYILYRSTVHAYLSFLLDRKEIEREFRNNVLVWRRC", "soluble on expression in E. coli": "not soluble"}
{"record_sequence": "MSLTIEDVAKLAGVSIATVSRVINGSGYVSEKTRYKVWKAIEELGYKPEISAKLLASKGKLFNIYVFASKRILSPLQNNGILGEFYGVIIRAIEENCGRLGMNVELKMLENFSESNGADGYIFIGGDLSEKTLKEIKSRKKPFVLVDHYIPGERVDCVISDGYDGAVYATNYLISKGFKRIVHVHGPLHPYGFKMRYDGYKDAMEKAGLMPRFYECDDTEEGTRKVIDIMLNSYGTPEAIFTSNDSIAFWVIKRLKEHNIKVPDDVSVIGFDDIVDAENFDPPLTTLRVFKYEMGCLACKRLHELLTGINPHPVRILVFTQFVKRKSTKEGHHHHHH", "soluble on expression in E. coli": "not soluble"}
{"record_sequence": "MGSDKIHHHHHHMSISPNPNIAEIAALFGETSRAAILTSLLDGRLHTASDLAYRAGITPQTASFHLGKLAEGGLVSVEKHGRHRYYQLANGEVASLLESFLVISPQPEVKSLKQSAQMVMLQKARTCYDHLAGKLGVGITDSMLDSGYLKKDGKEFVLTEAGVQFVINFGLDLESIKKKRRSLSHACLDWSERSYHLAGALGNQLMQHFFDLGWITPLPGIRAVKVTDQGKAGFKQYFNISL", "soluble on expression in E. coli": "not soluble"}
{"record_sequence": "MKKWVCTVCGYIYDEDAGDPDNGISPGTKFEELPDDWVCPLCGVGKDQFEKLED", "soluble on expression in E. coli": "soluble"}
{"record_sequence": "MRDSIMQMCELCGKLTDKLYKVIIEGSEMNVCKECAKFGKSPKTYSRLGKKTIIGKGTITTNKQVKKPIKRRRDIFDTLPMLREDYGDVIREAREKRGLSIEELAKKLKMKASTLQKFERYELEPNEKEIKILEKELKISLTESIGEETSYYGGRDEDGFTLGDFIKIKK", "soluble on expression in E. coli": "not soluble"}
